Target: GSK3α (GST-full length GSK3α) (Homo sapiens (Human))
Sequence (P49840 whole entry): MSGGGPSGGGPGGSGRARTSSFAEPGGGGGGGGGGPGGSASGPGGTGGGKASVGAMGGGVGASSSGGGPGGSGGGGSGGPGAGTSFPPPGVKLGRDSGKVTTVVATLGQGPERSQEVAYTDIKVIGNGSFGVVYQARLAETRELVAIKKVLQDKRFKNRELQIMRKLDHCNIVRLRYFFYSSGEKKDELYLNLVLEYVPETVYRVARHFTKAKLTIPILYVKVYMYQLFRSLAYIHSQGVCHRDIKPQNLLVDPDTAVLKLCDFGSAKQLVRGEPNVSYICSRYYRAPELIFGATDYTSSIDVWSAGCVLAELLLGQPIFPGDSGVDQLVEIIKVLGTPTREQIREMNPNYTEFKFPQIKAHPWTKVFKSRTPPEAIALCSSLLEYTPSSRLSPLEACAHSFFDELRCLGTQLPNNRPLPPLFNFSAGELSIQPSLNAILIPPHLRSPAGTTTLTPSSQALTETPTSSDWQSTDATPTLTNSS
Experiment: GSK3α TR-FRET kinase assay
Type: biochemical
Conditions: read-out: GSK3-A (TR-FRET 1 mM ATP); GMean; IC50; 1 mM ATP; geometric mean
// reported IC50 for each item listed

Guide cases for IC50, answers given:
Compound | IC50
CCC1(c2cccc(OCC(F)F)c2)C2=C(CC(C)(C)CC2=O)Nc2n[nH]cc21 (centres unmarked) | 100 to 1000 nM
CC[C@@]1(c2cccc(-c3cnn(C)c3)c2)C2=C(Nc3n[nH]cc31)[C@H](F)C(C)(C)CC2=O | 1000 to 5000 nM
CCC1(c2cccc(S(=O)(=O)C(C)C)c2)C2=C(CC(C)(C)NC2=O)Nc2n[nH]c(C)c21 (centres unmarked) | ≤ 100 nM

**Q:** Please look up its IC50: CCC1(c2cccc(-c3cnn(C)c3)c2)C2=C(CC(C)(C)NC2=O)Nc2n[nH]c(C)c21 (centres unmarked)
**A:** 100 to 1000 nM

**Q:** Please look up its IC50: CCC1(c2cccc(-c3ccnc(C)c3)c2)C2=C(Nc3n[nH]cc31)C(F)C(C)(C)CC2=O (centres unmarked) [Compound 946103]
**A:** > 5000 nM

**Q:** Please look up its IC50: CCC1(c2cccc(C)c2)C2=C(CC(C)(C)CC2=O)Nc2n[nH]c(C(F)(F)F)c21 (centres unmarked)
**A:** ≤ 100 nM

**Q:** Please look up its IC50: Cc1ccc(S(C)(=O)=O)cc1C1(C)C2=C(CC(C)(C)CC2=O)Nc2n[nH]c(CC(C)(C)C)c21 (centres unmarked)
**A:** 1000 to 5000 nM

**Q:** Please look up its IC50: CCC1(c2cccc(-c3ccncc3C)c2)C2=C(CC(C)(C)CC2=O)Nc2n[nH]c(C(F)(F)F)c21 (centres unmarked)
**A:** ≤ 100 nM

Origin of the recorded values: patent US20250313563A1
